- Test system: Klebsiella pneumoniae
- protocol summary: Antibacterial activity against Klebsiella pneumoniae after 24 hrs
- Format: functional
measured quantity: MBC

1) Cc1ccc(S(=O)(=O)c2c(-c3ccc(Cl)cc3)noc2-c2ccc(-c3onc(-c4ccc(Cl)cc4)c3S(=O)(=O)c3ccc(C)cc3)cc2)cc1; > 200 µg/mL

List reported MBC for each of these compounds:
1. O=S(=O)(c1ccc(Cl)cc1)c1c(-c2ccc(Cl)cc2)noc1-c1ccc(-c2onc(-c3ccc(Cl)cc3)c2S(=O)(=O)c2ccc(Cl)cc2)cc1
2. O=S(=O)(c1ccc(Cl)cc1)c1c(-c2ccc(Cl)cc2)nn(-c2ccccc2)c1-c1ccc(-c2c(S(=O)(=O)c3ccc(Cl)cc3)c(-c3ccc(Cl)cc3)nn2-c2ccccc2)cc1
3. O=S(=O)(c1ccccc1)c1c(-c2ccc(Cl)cc2)noc1-c1ccc(-c2onc(-c3ccc(Cl)cc3)c2S(=O)(=O)c2ccccc2)cc1

1. 100 µg/mL
2. > 200 µg/mL
3. > 200 µg/mL

###

- Test system: Pseudomonas aeruginosa
- protocol summary: Antibacterial activity against Pseudomonas aeruginosa at 50 ug/well after 24 hrs by agar well diffusion method
- Format: functional
Activity calls are given as the source filed them. No cut-off for these calls is given here.
measured quantity: diameter of the inhibition zone (DIZ)

1) COc1ccc(C2=NN(c3ccccc3)C(c3ccc(C4C(S(=O)(=O)c5ccccc5)C(c5ccc(OC)cc5)=NN4c4ccccc4)cc3)C2S(=O)(=O)c2ccccc2)cc1 (stereo not drawn); inactive
2) Cc1ccc(S(=O)(=O)C2C(c3ccc(Cl)cc3)=NN(c3ccccc3)C2c2ccc(C3C(S(=O)(=O)c4ccc(C)cc4)C(c4ccc(Cl)cc4)=NN3c3ccccc3)cc2)cc1 (stereo not drawn); inactive
3) COc1ccc(C2=NOC(c3ccc(C4ON=C(c5ccc(OC)cc5)C4S(=O)(=O)c4ccc(C)cc4)cc3)C2S(=O)(=O)c2ccc(C)cc2)cc1 (stereo not drawn); inactive

###

Provide the reported zone of inhibition at 50 µg/disc of each item.
- Test system: Pseudomonas aeruginosa
- protocol summary: Antibacterial activity against Pseudomonas aeruginosa at 50 ug/well after 24 hrs by agar well diffusion method
- Format: functional
- run parameters: read-out: DIZ
Give bare numbers, in mm.

1) O=S(=O)(c1ccccc1)c1c(-c2ccc(Cl)cc2)nn(-c2ccccc2)c1-c1ccc(-c2c(S(=O)(=O)c3ccccc3)c(-c3ccc(Cl)cc3)nn2-c2ccccc2)cc1; 17
2) COc1ccc(-c2noc(-c3ccc(-c4onc(-c5ccc(OC)cc5)c4S(=O)(=O)c4ccc(C)cc4)cc3)c2S(=O)(=O)c2ccc(C)cc2)cc1; 15

Moving on to the next compound.
Record COc1ccc(-c2noc(-c3ccc(-c4onc(-c5ccc(OC)cc5)c4S(=O)(=O)c4ccc(Cl)cc4)cc3)c2S(=O)(=O)c2ccc(Cl)cc2)cc1 . Reported zone of inhibition at 50 µg/disc: 17

###

Provide the reported zone of inhibition at 50 µg/disc of each item.
- Tested on: Staphylococcus aureus
- protocol summary: Antibacterial activity against Staphylococcus aureus at 50 ug/well after 24 hrs by agar well diffusion method
- Type: functional
- run parameters: read-out: DIZ
Give bare numbers, in mm.

Guide cases for zone of inhibition at 50 µg/disc, answers given:
1) Cc1ccc(S(=O)(=O)c2c(-c3ccc(Cl)cc3)nn(-c3ccccc3)c2-c2ccc(-c3c(S(=O)(=O)c4ccc(C)cc4)c(-c4ccc(Cl)cc4)nn3-c3ccccc3)cc2)cc1; 24
2) COc1ccc(C2=NOC(c3ccc(C4ON=C(c5ccc(OC)cc5)C4S(=O)(=O)c4ccc(Cl)cc4)cc3)C2S(=O)(=O)c2ccc(Cl)cc2)cc1 (stereo not drawn); 9

Moving on to the next compound.
Record O=S(=O)(c1ccc(Cl)cc1)c1c(-c2ccc(Cl)cc2)noc1-c1ccc(-c2onc(-c3ccc(Cl)cc3)c2S(=O)(=O)c2ccc(Cl)cc2)cc1 . Reported zone of inhibition at 50 µg/disc: 32

###

- Tested on: Penicillium chrysogenum
- protocol summary: Antifungal activity against Penicillium chrysogenum at 100 ug/well after 48 hrs by agar well diffusion method
- Assay type: functional
- run parameters: read-out: DIZ
measured quantity: zone of inhibition at 100 µg/disc (mm)
Give bare numbers, in mm.

Guide cases for zone of inhibition at 100 µg/disc, answers given:
1. Cc1ccc(S(=O)(=O)c2c(-c3ccc(Cl)cc3)nn(-c3ccccc3)c2-c2ccc(-c3c(S(=O)(=O)c4ccc(C)cc4)c(-c4ccc(Cl)cc4)nn3-c3ccccc3)cc2)cc1; 29
2. Cc1ccc(S(=O)(=O)C2C(c3ccc(Cl)cc3)=NOC2c2ccc(C3ON=C(c4ccc(Cl)cc4)C3S(=O)(=O)c3ccc(C)cc3)cc2)cc1 (stereo unspecified); 21
3. COc1ccc(C2=NN(c3ccccc3)C(c3ccc(C4C(S(=O)(=O)c5ccccc5)C(c5ccc(OC)cc5)=NN4c4ccccc4)cc3)C2S(=O)(=O)c2ccccc2)cc1 (stereo unspecified); 16
4. O=S(=O)(c1ccc(Cl)cc1)C1C(c2ccc(Cl)cc2)=NOC1c1ccc(C2ON=C(c3ccc(Cl)cc3)C2S(=O)(=O)c2ccc(Cl)cc2)cc1 (stereo unspecified); 23
5. COc1ccc(C2=NOC(c3ccc(C4ON=C(c5ccc(OC)cc5)C4S(=O)(=O)c4ccc(Cl)cc4)cc3)C2S(=O)(=O)c2ccc(Cl)cc2)cc1 (stereo unspecified); 19

Moving on to the next compound.
Record O=S(=O)(c1ccccc1)C1C(c2ccc(Cl)cc2)=NN(c2ccccc2)C1c1ccc(C2C(S(=O)(=O)c3ccccc3)C(c3ccc(Cl)cc3)=NN2c2ccccc2)cc1 (stereo unspecified) . Reported zone of inhibition at 100 µg/disc: 18

###

- Test system: Klebsiella pneumoniae
- protocol summary: Antibacterial activity against Klebsiella pneumoniae at 50 ug/well after 24 hrs by agar well diffusion method
- Type: functional
- run parameters: read-out: DIZ
measured quantity: zone of inhibition at 50 µg/disc (mm)
One number for each entry, in mm.

1. O=S(=O)(c1ccc(Cl)cc1)c1c(-c2ccc(Cl)cc2)nn(-c2ccccc2)c1-c1ccc(-c2c(S(=O)(=O)c3ccc(Cl)cc3)c(-c3ccc(Cl)cc3)nn2-c2ccccc2)cc1; 25
2. Cc1ccc(S(=O)(=O)C2C(c3ccc(Cl)cc3)=NOC2c2ccc(C3ON=C(c4ccc(Cl)cc4)C3S(=O)(=O)c3ccc(C)cc3)cc2)cc1 (stereo unspecified); 10
3. O=S(=O)(c1ccccc1)C1C(c2ccc(Cl)cc2)=NOC1c1ccc(C2ON=C(c3ccc(Cl)cc3)C2S(=O)(=O)c2ccccc2)cc1 (stereo unspecified); 11

List reported zone of inhibition at 50 µg/disc for each of these compounds:
1. O=S(=O)(c1ccccc1)C1C(c2ccc(Cl)cc2)=NN(c2ccccc2)C1c1ccc(C2C(S(=O)(=O)c3ccccc3)C(c3ccc(Cl)cc3)=NN2c2ccccc2)cc1 (stereo unspecified)
2. O=S(=O)(c1ccc(Cl)cc1)C1C(c2ccc(Cl)cc2)=NOC1c1ccc(C2ON=C(c3ccc(Cl)cc3)C2S(=O)(=O)c2ccc(Cl)cc2)cc1 (stereo unspecified)
3. COc1ccc(-c2nn(-c3ccccc3)c(-c3ccc(-c4c(S(=O)(=O)c5ccc(C)cc5)c(-c5ccc(OC)cc5)nn4-c4ccccc4)cc3)c2S(=O)(=O)c2ccc(C)cc2)cc1

[10, 12, 13]

###

- Tested on: Staphylococcus aureus
- protocol summary: Antibacterial activity against Staphylococcus aureus at 50 ug/well after 24 hrs by agar well diffusion method
- Assay type: functional
- run parameters: read-out: DIZ
measured quantity: zone of inhibition at 50 µg/disc (mm)
One number for each entry, in mm.

1) O=S(=O)(c1ccccc1)C1C(c2ccc(Cl)cc2)=NOC1c1ccc(C2ON=C(c3ccc(Cl)cc3)C2S(=O)(=O)c2ccccc2)cc1 (stereo unspecified); 14

List reported zone of inhibition at 50 µg/disc for each of these compounds:
1. O=S(=O)(c1ccccc1)c1c(-c2ccc(Cl)cc2)nn(-c2ccccc2)c1-c1ccc(-c2c(S(=O)(=O)c3ccccc3)c(-c3ccc(Cl)cc3)nn2-c2ccccc2)cc1
2. O=C(N[C@H](CO)[C@H](O)c1ccc([N+](=O)[O-])cc1)C(Cl)Cl

1: 23; 2: 33

List reported zone of inhibition at 50 µg/disc for each of these compounds:
1. COc1ccc(-c2noc(-c3ccc(-c4onc(-c5ccc(OC)cc5)c4S(=O)(=O)c4ccc(C)cc4)cc3)c2S(=O)(=O)c2ccc(C)cc2)cc1
2. Cc1ccc(S(=O)(=O)C2C(c3ccc(Cl)cc3)=NN(c3ccccc3)C2c2ccc(C3C(S(=O)(=O)c4ccc(C)cc4)C(c4ccc(Cl)cc4)=NN3c3ccccc3)cc2)cc1 (stereo unspecified)
3. O=S(=O)(c1ccc(Cl)cc1)C1C(c2ccc(Cl)cc2)=NN(c2ccccc2)C1c1ccc(C2C(S(=O)(=O)c3ccc(Cl)cc3)C(c3ccc(Cl)cc3)=NN2c2ccccc2)cc1 (stereo unspecified)

20
9
11

###

- Test system: Penicillium chrysogenum
- protocol summary: Antifungal activity against Penicillium chrysogenum at 100 ug/well after 48 hrs by agar well diffusion method
- Assay type: functional
- run parameters: read-out: DIZ
measured quantity: zone of inhibition at 100 µg/disc (mm)
One number for each entry, in mm.

Guide cases for zone of inhibition at 100 µg/disc, answers given:
1. Cc1ccc(S(=O)(=O)C2C(c3ccc(Cl)cc3)=NN(c3ccccc3)C2c2ccc(C3C(S(=O)(=O)c4ccc(C)cc4)C(c4ccc(Cl)cc4)=NN3c3ccccc3)cc2)cc1 (stereo unspecified); 16
2. O=S(=O)(c1ccc(Cl)cc1)c1c(-c2ccc(Cl)cc2)noc1-c1ccc(-c2onc(-c3ccc(Cl)cc3)c2S(=O)(=O)c2ccc(Cl)cc2)cc1; 37
3. O=S(=O)(c1ccc(Cl)cc1)c1c(-c2ccc(Cl)cc2)nn(-c2ccccc2)c1-c1ccc(-c2c(S(=O)(=O)c3ccc(Cl)cc3)c(-c3ccc(Cl)cc3)nn2-c2ccccc2)cc1; 31
4. COc1ccc(C2=NOC(c3ccc(C4ON=C(c5ccc(OC)cc5)C4S(=O)(=O)c4ccc(C)cc4)cc3)C2S(=O)(=O)c2ccc(C)cc2)cc1 (stereo unspecified); 18
5. COc1ccc(C2=NN(c3ccccc3)C(c3ccc(C4C(S(=O)(=O)c5ccc(Cl)cc5)C(c5ccc(OC)cc5)=NN4c4ccccc4)cc3)C2S(=O)(=O)c2ccc(Cl)cc2)cc1 (stereo unspecified); 17

Moving on to the next compound.
Record Cc1ccc(S(=O)(=O)c2c(-c3ccc(Cl)cc3)noc2-c2ccc(-c3onc(-c4ccc(Cl)cc4)c3S(=O)(=O)c3ccc(C)cc3)cc2)cc1 . Reported zone of inhibition at 100 µg/disc: 34
